EXPERIMENTAL_TARGET: rabbit Imidazoline 2 Central (I2C), CKB (gene 100009085)
ASSAY_PROTOCOL: NVS_ENZ_rabI2C: NovaScreen (NVS) Enzymatic Assay for rabbit Imidazoline 2 Central (I2C) (AID 2283228)
Records with an inconclusive call do not appear. Calls of active or inactive are those of the source. The calls were made as follows: active = hit-call score of the fitted dose curve at least 0.9, where 1 is the maximum; inconclusive = response in the unintended direction; inactive = score below 0.9.
// one of active, inactive, no free text

Which outcome did this test record for the compound `CC(C)(O)c1ccc(CNC(=O)c2cccnc2Oc2ccc(F)cc2)cc1` ?
inactive

What was the test verdict on `CN(C)C(=O)NC1(c2ccccc2)CCN(CC[C@@]2(c3ccc(F)c(F)c3)CN(C(=O)c3ccccc3)CCO2)CC1` ?
inactive

Outcome? `COc1ccc(OC(F)(F)F)cc1CN[C@H]1CCCN[C@H]1c1ccccc1`
active

Tell me the assay call for `Cn1cnc2c1c(=O)[nH]c(=O)n2C` please.
inactive

Returns: the outcome recorded for `NC(=Nc1ccccc1)Nc1ccccc1` in this assay.
inactive

Please state the recorded outcome for this compound: `COC(=O)[C@H]1[C@H]2C[C@@H]3c4[nH]c5cc(OC)ccc5c4CCN3C[C@H]2C[C@@H](OC(=O)c2cc(OC)c(OC)c(OC)c2)[C@@H]1OC`
inactive

How did this test come out for `Nc1nc(=S)c2[nH]cnc2[nH]1` ?
active

Lab log entry: `NC1CCCCC1` — outcome as called in the assay?
active

Could you check what this test reported for `CCc1nc(N)nc(N)c1-c1ccc(Cl)cc1` ?
active

Hi, sorry to bother you, what did the test record for `O=C(O)c1[nH]n(-c2ccc(S(=O)(=O)O)cc2)c(=O)c1N=Nc1ccc(S(=O)(=O)O)cc1` ?
inactive

---

Read-out: Cytochrome P450 (CYP2B6), CYP2B6 (gene 1555)
ASSAY_PROTOCOL: LTEA_HepaRG_CYP2B6: Life Technologies and Expression Analysis (LTEA) Assay for Cytochrome P450 (CYP2B6) using HepaRG (AID 2283481)
SETUP_CONDITIONS: mRNA level, 48 h; actives raise or lower the signal
Active and inactive are the calls of the source. Rule for the calls: active = hit-call score of the fitted dose curve at least 0.9, where 1 is the maximum; inactive = score below 0.9.
The reply should be one of these categories: active, inactive

Could you please tell me the result logged for `COC(=O)CCCC(=O)OC` in this assay?
inactive

// return assay outcome for `CC(=O)S[C@H](C(=O)N[C@H]1Cc2ccccc2[C@H]2CCC[C@@H](C(=O)O)N2C1=O)C(C)C`
inactive

Per the assay record, what outcome was assigned to Cc1c(C)c2c(c(C)c1O)CCC(C)(COc1ccc(CC3SC(=O)NC3=O)cc1)O2 (configuration not stated) ?
active

Can you look up the reported call for `C=CCCCCCCCCCCCC` for me?
inactive

In this assay, the call recorded for `O=C(O)c1cccnc1` was what?
inactive

Hey, what did the test say about `COC(=O)CCC(=O)OC` ?
inactive

For `CCOCCOCCO` , which call appears in the assay record?
inactive

---

Read-out: Interleukin-1 alpha (IL1a), IL1A (gene 3552)
ASSAY_PROTOCOL: BSK_KF3CT_IL1a: BioMAP Diversity Plus: KF3CT Assay for Interleukin-1 alpha (IL1a) Biomarker Activity (AID 2283070)
SETUP_CONDITIONS: primary human keratinocytes with fibroblasts; actives raise or lower the signal
The source made the active and inactive calls. How the source made its calls: active means hit-call score of the fitted dose curve at least 0.9, where 1 is the maximum; inactive means score below 0.9.
Give your call using only these classes: t (active), f (inactive)

What call does the record list for `CC(=O)O[C@]1(C(C)=O)CC[C@H]2[C@@H]3C=C(Cl)C4=CC(=O)[C@@H]5C[C@@H]5[C@]4(C)[C@H]3CC[C@@]21C` ?
f

Each compound tested received a call. Report the one for `Cc1cc(Cc2ccc(N)c(C)c2)ccc1N` .
f

// return assay outcome for `Cn1cnc2c1c(=O)[nH]c(=O)n2C`
f

Test call, this compound: `c1ccc2occc2c1`
f

Would you mind telling me which call this test gave `CCCCCCCC(=O)OC` ?
f

Recorded call for `CCCCCCCCCC[N+](C)(C)[O-]` ?
f

Could you kindly confirm the outcome this assay logged for `CC1(C)C(=O)NC(=O)N1CO` ?
f

// return assay outcome for CC(=O)CC(c1ccccc1)c1c(O)c2ccccc2oc1=O (stereo unspecified)
f

Per the records of this test, what outcome belongs to `CC1=C(C)S(=O)(=O)CCS1(=O)=O` ?
f

Which outcome was entered for the compound `CC(C)(O)c1ccc(CNC(=O)c2cccnc2Oc2ccc(F)cc2)cc1` in this test?
f

# lookup: test call for CC(COCC(C)OC(=O)c1ccccc1)OC(=O)c1ccccc1 (stereo unspecified)
f

Any idea what this test logged for `O=C(O)c1[nH]n(-c2ccc(S(=O)(=O)O)cc2)c(=O)c1N=Nc1ccc(S(=O)(=O)O)cc1` ?
f

Could you please tell me the result logged for `C=CCCCCCCCCCCCC` in this assay?
f

Check the results log: what was the call for `Oc1ccccc1O` ?
t

# lookup: test call for CC(C)NCC(O)c1ccc(O)c(O)c1 (stereo unspecified)
f

Record lookup: outcome of this test for `CCCCCCCCCCCCCCCCO` ?
f

Recorded call for `CCc1nc(N)nc(N)c1-c1ccc(Cl)cc1` ?
f

For `OCC(O)CO` , what call appears in the results of this test?
f

Hello, I am checking results. What call was entered for CCCCC(CC)COC(=O)CCCCCCCC(=O)OCC(CC)CCCC (stereo unspecified) ?
f

Which result was noted for this compound in the test: `CCOCCOCCO`
f

Recorded test outcome, item `CC(=O)[C@@]1(O)CC[C@H]2[C@@H]3CCC4=CC(=O)CC[C@]4(C)[C@H]3CC[C@@]21C`
f

Which result was noted for this compound in the test: `COC(=O)[C@H]1[C@H]2C[C@@H]3c4[nH]c5cc(OC)ccc5c4CCN3C[C@H]2C[C@@H](OC(=O)c2cc(OC)c(OC)c(OC)c2)[C@@H]1OC`
f

Field: outcome | Entry: `NCCOCCOCCN`
f

Recorded call for `CC(C)COC(=O)CCCCC(=O)OCC(C)C` ?
f

Which outcome was assigned to `CCCCCCC(C=O)=Cc1ccccc1` in this test?
f

Hi, do you know how `OCC(CO)n1cnc(-c2ccc(F)cc2)c1-c1ccnc(Oc2ccccc2)n1` came out in this test?
f

---

ASSAY_PROTOCOL: Tanguay_ZF_120hpf_AXIS_legacy: (Legacy) Oregon State University Tanguay Lab 120 Hour Post-fertilization zebrafish Assay for Body Axis Malformation (AID 2283635)
Results filed as inconclusive are left out. Activity calls are given as the source filed them. Rule for the calls: active = hit-call score of the fitted dose curve at least 0.9, where 1 is the maximum; inconclusive = response in the unintended direction; inactive = score below 0.9.
# valid calls are class 1 for active, class 0 for inactive; nothing else

Returns: the outcome recorded for `COC(=O)CCC(=O)OC` in this assay.
class 0

What was the test verdict on `S=c1[nH]c2ccccc2s1` ?
class 1

Kindly provide the recorded test outcome for the following compound: CC(C)NCC(O)c1ccc(O)c(O)c1 (centres undefined)
class 0

Identify the outcome logged in this assay for the compound shown: `CC1(C)C(=O)NC(=O)N1CO`
class 0

Record request — test call for `O=C1O[C@H]([C@H](O)CO)C(O)=C1O`
class 0

In this assay, the call recorded for CCCCCCC(CCCCCCCCCCC(=O)OCC(COC(C)=O)OC(C)=O)OC(C)=O (centres undefined) was what?
class 0

Called result for `Cc1cc(SC2=C(O)C[C@@](CCc3ccc(N)cc3)(C(C)C)OC2=O)c(C(C)(C)C)cc1CO`
class 0

Write down the call the test reported for this compound. Item: CCC(C)N(C)C(=O)c1cc2ccccc2c(-c2ccccc2Cl)n1 (centres undefined)
class 0

Dear colleague, could you share the recorded outcome for `CC(N)=O` when you have a moment?
class 0

Per the records of this test, what outcome belongs to `CSc1ccc(Oc2ccc(S(N)(=O)=O)cc2CN(C)C)cc1C` ?
class 0

Give the logged outcome of this assay for the following compound: `COc1ccc(OC(F)(F)F)cc1CN[C@H]1CCCN[C@H]1c1ccccc1`
class 0

Hi, sorry to bother you, what did the test record for `CCCCCCCCCCCCCCCCO` ?
class 0

Called result for `Nc1nc(Cl)nc2c1ncn2[C@H]1C[C@H](O)[C@@H](CO)O1`
class 0

For `Oc1ccccc1O` , what call appears in the results of this test?
class 0

Hi, do you know how `O=C1c2c(O)cccc2Cc2cccc(O)c21` came out in this test?
class 0

Recorded call for `O=C(O)c1[nH]n(-c2ccc(S(=O)(=O)O)cc2)c(=O)c1N=Nc1ccc(S(=O)(=O)O)cc1` ?
class 0

Kindly provide the recorded test outcome for the following compound: CC(=O)CC(c1ccccc1)c1c(O)c2ccccc2oc1=O (centres undefined)
class 0

Please state the recorded outcome for this compound: `CC(C)(C)c1ccccc1`
class 0

Look up the recorded call for C#CC(O)C(CC)CCCC (centres undefined) in this test.
class 0

Called result for `O=C1CCCCC1`
class 0

Hi team, can someone confirm the assay call for `Oc1ccc(O)cc1` ?
class 0

Answer briefly: the call reported for `Cc1occc(=O)c1O` in this assay.
class 0

Which outcome did this test record for the compound `O=NO` ?
class 0

Test call for this compound, please: `CN(C)C(=O)NC1(c2ccccc2)CCN(CC[C@@]2(c3ccc(F)c(F)c3)CN(C(=O)c3ccccc3)CCO2)CC1`
class 0

Hello, the source for this data is PubChem BioAssay (EPA / NIEHS), in case you need it.
